Please provide measured T/C for the entries that follow.
system: L1210 leukemia ip in BDF1 mice, survival T/C; experiment: NCI In Vivo Anticancer Drug Screen. Data for tumor model L1210 Leukemia (intraperitoneal) in B6D2F1 (BDF1) mice; conditions: endpoint: mean survival time; dose: 200.0 mg/kg/injection; schedule: Q01DX001 (ip); vehicle: saline; higher = longer survival
Toxic doses and inconclusive results are not listed.

The molecule listed as `Nc1ncnc2c1ncn2[C@H]1CC[C@@H](CO)C1` shows T/C equal to 97 % of control

Give T/C for all molecules that follow.
1. Cc1cc(OCCCC(=O)O)ccc1Cl
2. CN(C)S(=O)(=O)c1ccc(NC(=O)OC(c2ccccc2)c2ccccc2)cc1
3. Cc1cc(Cl)nc2ccc(Cc3ccccc3)cc12
4. O=P1(Nc2ccccc2)OCCCN1Cc1ccc(Cl)c(Cl)c1 (centres undefined)

1: 102 % of control; 2: 102 % of control; 3: 96 % of control; 4: 90 % of control

Give T/C for all molecules that follow.
1. CCN(CC)CCNc1ccc(C)c2sc3ccccc3c(=O)c12
2. Cc1cc(C)c(S(=O)(=O)N=[N+]=[N-])c(C)c1
3. CCCCCCCCCCCCCCCCCCC[As](=O)(O)CCCCCCCCCCCCCCCCCCC
4. NC(=S)N/N=C/C(=O)O
5. CC(C)CCCC(=O)O
6. CCCC1C2C(=O)N(c3ccccc3)C(=O)C2ON1c1ccccc1 (centres undefined)
7. Cc1cccc(CCSCCc2cccc(C)[n+]2[O-])[n+]1[O-]

110 % of control
103 % of control
95 % of control
89 % of control
100 % of control
101 % of control
92 % of control

Give T/C for all molecules that follow.
1. CC(C(=O)O)C(N)C(=O)O (centres undefined)
2. N#CCCOCC(COCCC#N)OCCC#N

["96 % of control", "101 % of control"]

----------
Please provide measured T/C for the entries that follow.
system: L1210 leukemia ip in BDF1 mice, survival T/C; test: NCI In Vivo Anticancer Drug Screen. Data for tumor model L1210 Leukemia (intraperitoneal) in B6D2F1 (BDF1) mice; details: endpoint: mean survival time; dose: 400.0 mg/kg/injection; schedule: Q04DX002 (ip); vehicle: Klucel (hydroxypropylcellulose) (HPC); higher = longer survival
Inconclusive results and toxic doses are left out.

The compound listed as `CC(=O)CCc1ccc(Cl)cc1` shows T/C equal to 105 % of control

Give T/C for all compounds that follow.
1. NC(=O)Nc1ccccc1-c1ccccc1
2. Cc1ccc(S(=O)(=O)OCC2C3C=CC(C4C=CC43)C2COS(=O)(=O)c2ccc(C)cc2)cc1 (stereo unspecified)
3. O=C(Cc1ccccc1)Nc1ccc(Cl)c(Cl)c1

1. 103 % of control
2. 98 % of control
3. 96 % of control

Give T/C for all compounds that follow.
1. C[N+](C)(C)C12CCC(CC1)C1([N+](C)(C)C)CCC2CC1
2. C=CCOc1c(Br)cc(Br)cc1Br
3. C1=NC(c2ccccc2)=CN(C2CCCCCC2)C1(c1ccccc1)C1CCCCCC1 (stereo unspecified)
4. Cc1ccc(C)c(NC(=O)C2CCCCC2C(=O)O)c1 (stereo unspecified)

1: 117 % of control; 2: 95 % of control; 3: 95 % of control; 4: 103 % of control

Give T/C for all compounds that follow.
1. N#C/C(=C\C1CCCC([N+](=O)[O-])C1)C1CCC([N+](=O)[O-])CC1 (stereo unspecified)
2. ClCCN(CCCl)c1ccc(C=Nc2cc(Cl)ccc2-n2ccnc2)c(Cl)c1
3. O=C(Nc1ccc(Cl)cc1)Nc1ccc([N+](=O)[O-])cc1[N+](=O)[O-]

1: 100 % of control; 2: 98 % of control; 3: 108 % of control

----------
system: L1210 leukemia ip in BDF1 mice, survival T/C; experiment: NCI In Vivo Anticancer Drug Screen. Data for tumor model L1210 Leukemia (intraperitoneal) in B6D2F1 (BDF1) mice; details: endpoint: mean survival time; dose: 50.0 mg/kg/injection; schedule: Q04DX003 (ip); vehicle: saline; higher = longer survival
Inconclusive results and toxic doses are left out.
endpoint label: T/C

Please review the entries below; each comes with its answer.
The molecule listed as `O=C(O)/C=C\c1c[nH]c2nccnc12` shows T/C equal to 115 % of control

The molecule listed as `COC(=O)c1c2ccccc2[n+](C)c2ccccc12` shows T/C equal to 102 % of control

The molecule listed as `CC1(C)NC(=O)N(CCO)C1=O` shows T/C equal to 111 % of control

The molecule listed as CC#CCOCC1CNC(=O)O1 (stereo not given) shows T/C equal to 97 % of control

Now examine the next entry.
The molecule listed as CCC(C)C(CCN1CCCCC1)(CNC(=O)CN(CC)CC)Cc1cccc2ccccc12 (stereo not given) shows T/C equal to 98 % of control

----------
system: L1210 leukemia ip in BDF1 mice, survival T/C; assay: NCI In Vivo Anticancer Drug Screen. Data for tumor model L1210 Leukemia (intraperitoneal) in B6D2F1 (BDF1) mice; conditions: endpoint: mean survival time; dose: 400.0 mg/kg/injection; schedule: Q04DX002 (ip); vehicle: saline with Tween-80; higher = longer survival
Toxic doses and inconclusive results are not listed.
Please provide measured T/C for the entries that follow.

The compound listed as `O=C(CCc1ccccc1)c1ccccc1` shows T/C equal to 90 % of control

The compound listed as `BrCOCCCCOCBr` shows T/C equal to 91 % of control

The compound listed as `O=C(NC(=S)Nc1cccc(C(F)(F)F)c1)c1cc([N+](=O)[O-])cc([N+](=O)[O-])c1` shows T/C equal to 97 % of control

Give T/C for all compounds that follow.
1. COc1ccc(/C=C(\C#N)c2ccc([N+](=O)[O-])cc2)cc1OC
2. CSc1n[nH]c(Cl)n1
3. Cc1cccc(Cl)c1OCC(N)=O
4. Cc1cc(O)c(C)c(C)c1N=Nc1ccccc1
5. CCOC(=O)c1cc(/C=C/C=O)oc1N
6. CC(C)CCCC(C)C1CCC2C3CC=C4CC(=O)CCC4(C)C3CCC12C (stereo not drawn)

90 % of control
93 % of control
111 % of control
93 % of control
97 % of control
88 % of control

----------
system: L1210 leukemia ip in BDF1 mice, survival T/C; assay: NCI In Vivo Anticancer Drug Screen. Data for tumor model L1210 Leukemia (intraperitoneal) in B6D2F1 (BDF1) mice; conditions: endpoint: mean survival time; dose: 100.0 mg/kg/injection; schedule: Q04DX002 (ip); vehicle: Klucel (hydroxypropylcellulose) (HPC); higher = longer survival
Inconclusive results and toxic doses are left out.
endpoint label: T/C

Please review the entries below; each comes with its answer.
The compound listed as `CC(C)OC(=O)Nc1cccc(Br)c1` shows T/C equal to 92 % of control

The compound listed as `[O-][n+]1ccc2ccccc2c1` shows T/C equal to 106 % of control

The compound listed as `O=C1NCCC/C1=N/Nc1ccccc1` shows T/C equal to 92 % of control

Give T/C for all compounds that follow.
1. CC1C(=O)C(C)C(C(=O)O)C1C (stereo not drawn)
2. CCOC(=O)C1OC1(C)C (stereo not drawn)

100 % of control
88 % of control

Give T/C for all compounds that follow.
1. NC(=S)N/N=C/c1c(Cl)n(-c2ccccc2)c2ccccc12
2. O=c1ccnc(-c2ccccc2)[nH]1
3. COc1ccc(C)cc1NC(=O)Nc1cc([N+](=O)[O-])ccc1F
4. O=[N+]([O-])c1ccc(-c2ccc([N+](=O)[O-])cc2)cc1
5. O=C(COc1ccc(Cl)cc1)Nc1ccc(S(=O)(=O)O)c2ccccc12
6. C/C=C\c1ccc(OC(=O)NC)c(OC)c1
7. Cc1cc(Cl)ccc1OC(=O)Nc1cccc2ccccc12
8. CC12CCC3c4cc(N)c(O)cc4CCC3C1CCC2=O (stereo not drawn)

1: 87 % of control; 2: 119 % of control; 3: 87 % of control; 4: 98 % of control; 5: 98 % of control; 6: 100 % of control; 7: 101 % of control; 8: 92 % of control

----------
tested on: L1210 leukemia ip in BDF1 mice, survival T/C; assay: NCI In Vivo Anticancer Drug Screen. Data for tumor model L1210 Leukemia (intraperitoneal) in B6D2F1 (BDF1) mice; conditions: endpoint: mean survival time; dose: 50.0 mg/kg/injection; schedule: Q01DX001 (ip); vehicle: Klucel (hydroxypropylcellulose) (HPC); higher = longer survival
Inconclusive results and toxic doses are left out.
endpoint label: T/C

Please review the entries below; each comes with its answer.
The compound listed as `O=C(CCN1CC1)OCCCl` shows T/C equal to 112 % of control

The compound listed as `CC1(C)CCC2=C(O1)c1ccccc1C(=O)C2=O` shows T/C equal to 98 % of control

The compound listed as `CC(=O)OC(=O)c1ccc2c(c1)C(=O)c1ccccc1C2=O` shows T/C equal to 105 % of control

The compound listed as `Cc1[nH]c(C(=O)OCc2ccccc2)c(C)c1C(=O)OCc1ccccc1` shows T/C equal to 97 % of control

Now examine the next entry.
The compound listed as `O=C(O)/C=C\Cc1cccc(=O)[nH]1` shows T/C equal to 94 % of control
